Test system: Mycobacterium tuberculosis
assay.info: Antitubercular activity against moxifloxacin-resistant Mycobacterium tuberculosis H37Rv ATCC 27294 assessed as growth inhibition after 16 to 24 hrs by microplate-Alamar Blue assay
Assay type: functional
experimental.endpoint: MIC (µM)
Provide the reading as a plain figure in µM.

IN: So what MIC did Fc1ccc(C(F)(F)F)cc1-c1csc(Nc2ccc(Cl)cc2)n1 get with Mycobacterium tuberculosis?
OUT: 15.5

IN: Let us now turn to NNC(=O)c1ccncc1
OUT: 3.6

IN: Let us now turn to Fc1ccc(C(F)(F)F)cc1-c1csc(Nc2cc(Cl)cc(Cl)c2)n1
OUT: 12

IN: Let us now turn to O=[N+]([O-])c1cn2c(n1)OC[C@@H](OCc1ccc(OC(F)(F)F)cc1)C2
OUT: 0.88

IN: Let us now turn to CO[C@H]1/C=C/O[C@@]2(C)Oc3c(C)c(O)c4c(O)c(c(/C=N/N5CCN(C)CC5)c(O)c4c3C2=O)NC(=O)/C(C)=C\C=C\[C@H](C)[C@H](O)[C@@H](C)[C@@H](O)[C@@H](C)[C@H](OC(C)=O)[C@@H]1C
OUT: 0.14

* * *

System: Mycobacterium tuberculosis
assay.info: Antitubercular activity against capreomycin-resistant Mycobacterium tuberculosis H37Rv ATCC 27294 assessed as growth inhibition after 16 to 24 hrs by microplate-Alamar Blue assay
Type: functional
experimental.endpoint: MIC (µM)
Provide the reading as a plain figure in µM.

IN: Would you kindly share the measured MIC for CO[C@H]1/C=C/O[C@@]2(C)Oc3c(C)c(O)c4c(O)c(c(/C=N/N5CCN(C)CC5)c(O)c4c3C2=O)NC(=O)/C(C)=C\C=C\[C@H](C)[C@H](O)[C@@H](C)[C@@H](O)[C@@H](C)[C@H](OC(C)=O)[C@@H]1C ?
OUT: 0.05

IN: Let us now turn to Fc1ccc(C(F)(F)F)cc1-c1csc(Nc2ccc(Cl)cc2)n1
OUT: 17.4

IN: Let us now turn to Fc1ccc(C(F)(F)F)cc1-c1csc(Nc2cc(Cl)cc(Cl)c2)n1
OUT: 12

IN: Let us now turn to NNC(=O)c1ccncc1
OUT: 0.81

IN: Let us now turn to O=[N+]([O-])c1cn2c(n1)OC[C@@H](OCc1ccc(OC(F)(F)F)cc1)C2
OUT: 1.26
